- Measurement Target: N-terminal Xaa-Pro-Lys N-methyltransferase 1 (Homo sapiens, UniProt Q9BV86)
- Sequence (Q9BV86 whole entry, the tested form may be a part): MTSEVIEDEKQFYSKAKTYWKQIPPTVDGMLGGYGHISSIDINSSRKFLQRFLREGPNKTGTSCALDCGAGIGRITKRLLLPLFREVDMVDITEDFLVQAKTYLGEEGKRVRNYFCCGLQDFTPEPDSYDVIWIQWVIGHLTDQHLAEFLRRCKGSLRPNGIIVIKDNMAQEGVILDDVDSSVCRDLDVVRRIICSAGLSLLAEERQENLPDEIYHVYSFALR
- Test Name: Binding affinity to recombinant human full-length His6-tagged NTMT1 (1 to 222 residues) by ITC assay
Where a SMILES comes first, the peptide text is derived from it. The star is where a group is joined. X1 = O=C(Cc1ccc(O)cc1)*
Record form. Attribute: Kd. Fill in for each entry.
Answers are plain numbers, in nM.

Kindly give each listed record's Kd.
1. N=C(N)NCCC[C@H](NC(=O)[C@H](CCCCN)NC(=O)[C@@H]1CCCN1C(=O)Cc1ccc(O)cc1)C(N)=O
2. N=C(N)NCCC[C@H](NC(=O)[C@H](CCCNC(=N)N)NC(=O)[C@H](CCCNC(=N)N)NC(=O)[C@H](CCCNC(=N)N)NC(=O)[C@H](CCCNC(=N)N)NC(=O)[C@H](CCCNC(=N)N)NC(=O)[C@H](CCCCN)NC(=O)[C@@H]1CCCN1C(=O)Cc1ccc(O)cc1)C(N)=O (X1-PKRRRRRR-NH2)
3. N=C(N)NCCC[C@H](NC(=O)[C@H](CCCNC(=N)N)NC(=O)[C@H](CCCNC(=N)N)NC(=O)[C@H](CCC(N)=O)NC(=O)[C@H](CCCNC(=N)N)NC(=O)[C@H](CCCNC(=N)N)NC(=O)[C@H](CCCCN)NC(=O)[C@H](CCCCN)NC(=O)[C@H](CCCNC(=N)N)NC(=O)CNC(=O)[C@H](CCCNC(=N)N)NC(=O)[C@H](CCCCN)NC(=O)[C@@H]1CCCN1C(=O)Cc1ccc(O)cc1)C(N)=O

[3000, 300, 600]
